Provenance of the data: the supplement of paper PMC11061612

# reported Bliss excess; entries follow
# Tested on: A2058 (Melanoma)
# experiment: Bliss excess, mean over the matrix (fraction); higher = more synergy
valueType: Bliss excess

molecule	resultValue
CCc1c2c(nc3ccc(O)cc13)-c1cc3c(c(=O)n1C2)COC(=O)[C@]3(O)CC [SN-38] + O=C(c1cc(Cc2n[nH]c(=O)c3ccccc23)ccc1F)N1CCN(C(=O)C2CC2)CC1 [Olaparib] (first compound max 0.3 µM, 7x7, partner max 10 µM)	0.038
COc1nnc2ccc(N3CCC(c4ccc(OCCN5CCN(C)C(=O)[C@H]5C)cc4)CC3)nn12 [AZD5153] + C[C@@H]1COCCN1C2=NC(=NC(=C2)C3(CC3)[S@](=N)(=O)C)C4=C5C=CNC5=NC=C4 [AZD6738] (first compound max 1 µM, 7x7, partner max 10 µM)	0.0671
COc1cccc(OCCCN)c1-c1cc(Nc2cnc(C#N)cn2)n[nH]1 [Prexasertib] + Cc1cc2ncnn2cc1Nc1ncc2c(n1)n(C1CCOCC1)c(=O)n2C [AZD7648] (first compound max 1 µM, 7x7, partner max 10 µM)	0.0025
CN(C)CCCOc1ccc(-c2ccc3ncc4c(c3c2)n(C2CCOCC2)c(=O)n4C)cn1 [AZD0156] + C[C@@H]1COCCN1C2=NC(=NC(=C2)C3(CC3)[S@](=N)(=O)C)C4=C5C=CNC5=NC=C4 [AZD6738] (first compound max 1 µM, 7x7, partner max 10 µM)	-0.0135

* * *

# Tested on: NCI-H2342 (Lung Adenocarcinoma)
# experiment: Bliss excess, mean over the matrix (fraction); higher = more synergy
valueType: Bliss excess

compound	resultValue
NC1(C(=O)N[C@@H](CCO)c2ccc(Cl)cc2)CCN(c2ncnc3[nH]ccc23)CC1 [Capivasertib] + C[C@@H]1COCCN1C2=NC(=NC(=C2)C3(CC3)[S@](=N)(=O)C)C4=C5C=CNC5=NC=C4 [AZD6738] (first compound max 10 µM, 7x7, partner max 10 µM)	-0.0709
CN(C)CCCOc1ccc(-c2ccc3ncc4c(c3c2)n(C2CCOCC2)c(=O)n4C)cn1 [AZD0156] + O=C(c1cc(Cc2n[nH]c(=O)c3ccccc23)ccc1F)N1CCN(C(=O)C2CC2)CC1 [Olaparib] (first compound max 3 µM, partner max 3 µM)	-0.0504
O=C(c1cc(Cc2n[nH]c(=O)c3ccccc23)ccc1F)N1CCN(C(=O)C2CC2)CC1 [Olaparib] + CC1(C)CCC(CN2CCN(c3ccc(C(=O)NS(=O)(=O)c4ccc(NCC5CCOCC5)c([N+](=O)[O-])c4)c(Oc4cnc5[nH]ccc5c4)c3)CC2)=C(c2ccc(Cl)cc2)C1 [Venetoclax] (first compound max 10 µM, 7x7, partner max 1 µM)	-0.0201

* * *

# System: LXF-289 (Lung Adenocarcinoma)
# experiment: combination Emax (second highest fraction inhibited in the dose matrix, 72 h); higher = more inhibition; extreme values may be limits of the assay
Category scheme (combination Emax): band A: < 0.4; band B: ≥ 0.4 and < 0.6; band C: ≥ 0.6

molecule	category
CS(=O)(=O)CCNCc1ccc(-c2ccc3ncnc(Nc4ccc(OCc5cccc(F)c5)c(Cl)c4)c3c2)o1 [Lapatinib] + C[C@@H](Oc1cc(-c2cnn(C3CCNCC3)c2)cnc1N)c1c(Cl)ccc(F)c1Cl [Crizotinib] (first compound max 10 µM, 7x7, partner max 10 µM)	band C
Cc1cc2ncnn2cc1Nc1ncc2c(n1)n(C1CCOCC1)c(=O)n2C [AZD7648] + C[C@@H]1COCCN1C2=NC(=NC(=C2)C3(CC3)[S@](=N)(=O)C)C4=C5C=CNC5=NC=C4 [AZD6738] (first compound max 10 µM, 7x7, partner max 10 µM)	band A
CN(CCO)CC[C@H](CSc1ccccc1)Nc1ccc(S(=O)(=O)NC(=O)c2ccc(N3CCC([C@@H](O)c4ccccc4-c4ccc(Cl)cc4)CC3)cc2)cc1S(=O)(=O)C(F)(F)F [AZD4320] + CN(C)CCCOc1ccc(-c2ccc3ncc4c(c3c2)n(C2CCOCC2)c(=O)n4C)cn1 [AZD0156] (first compound max 1 µM, 7x7, partner max 1 µM)	band A
CN(CCO)CC[C@H](CSc1ccccc1)Nc1ccc(S(=O)(=O)NC(=O)c2ccc(N3CCC([C@@H](O)c4ccccc4-c4ccc(Cl)cc4)CC3)cc2)cc1S(=O)(=O)C(F)(F)F [AZD4320] + C=CCn1c(=O)c2cnc(Nc3ccc(N4CCN(C)CC4)cc3)nc2n1-c1cccc(C(C)(C)O)n1 [AZD1775] (first compound max 1 µM, partner max 1 µM)	band C
Cc1nc(Nc2ncc(C(=O)Nc3c(C)cccc3Cl)s2)cc(N2CCN(CCO)CC2)n1 [Dasatinib] + CC(=O)Nc1cccc(-n2c(=O)n(C3CC3)c(=O)c3c(Nc4ccc(I)cc4F)n(C)c(=O)c(C)c32)c1 [Trametinib] (first compound max 2 µM, 7x7, partner max 1 µM)	band C
CC1(C)CCC(CN2CCN(c3ccc(C(=O)NS(=O)(=O)c4ccc(NCC5CCOCC5)c([N+](=O)[O-])c4)c(Oc4cnc5[nH]ccc5c4)c3)CC2)=C(c2ccc(Cl)cc2)C1 [Venetoclax] + Cn1cnc2c(F)c(Nc3ccc(Br)cc3Cl)c(C(=O)NOCCO)cc21 [Selumetinib] (first compound max 1 µM, 7x7, partner max 3 µM)	band A
CN(C)CCCOc1ccc(-c2ccc3ncc4c(c3c2)n(C2CCOCC2)c(=O)n4C)cn1 [AZD0156] + CCN(CCO)CCCOc1ccc2c(Nc3cc(CC(=O)Nc4cccc(F)c4)[nH]n3)ncnc2c1 [AZD2811] (first compound max 1 µM, 7x7, partner max 1 µM)	band B
Cc1c2c(nn1C)CSCc1cc(n(C)n1)CSc1cc(c3ccccc3c1)OCCCc1c(C(=O)O)n(C)c3c-2c(Cl)ccc13 [AZD5991] + CN(C)CCCOc1ccc(-c2ccc3ncc4c(c3c2)n(C2CCOCC2)c(=O)n4C)cn1 [AZD0156] (first compound max 1 µM, 7x7, partner max 1 µM)	band B
CN(CCO)CC[C@H](CSc1ccccc1)Nc1ccc(S(=O)(=O)NC(=O)c2ccc(N3CCC([C@@H](O)c4ccccc4-c4ccc(Cl)cc4)CC3)cc2)cc1S(=O)(=O)C(F)(F)F [AZD4320] + C[C@@H](Nc1cc(F)cc(F)c1)c1cc(C(=O)N(C)C)cc2c(=O)cc(N3CCOCC3)oc12 [AZD8186] (first compound max 1 µM, 7x7, partner max 3 µM)	band A
COc1nnc2ccc(N3CCC(c4ccc(OCCN5CCN(C)C(=O)[C@H]5C)cc4)CC3)nn12 [AZD5153] + CCN(CCO)CCCOc1ccc2c(Nc3cc(CC(=O)Nc4cccc(F)c4)[nH]n3)ncnc2c1 [AZD2811] (first compound max 1 µM, 7x7, partner max 1 µM)	band C
CC1(C)CCC(CN2CCN(c3ccc(C(=O)NS(=O)(=O)c4ccc(NCC5CCOCC5)c([N+](=O)[O-])c4)c(Oc4cnc5[nH]ccc5c4)c3)CC2)=C(c2ccc(Cl)cc2)C1 [Venetoclax] + C1CN(CCC1(C(=O)N[C@@H](CCO)C2=CC=C(C=C2)Cl)N)C3=NC=NC4=C3C=CN4 [Capivasertib] (first compound max 1 µM, 7x7, partner max 3 µM)	band A
CCN(CCO)CCCOc1ccc2c(Nc3cc(CC(=O)Nc4cccc(F)c4)[nH]n3)ncnc2c1 [AZD2811] + C=CCn1c(=O)c2cnc(Nc3ccc(N4CCN(C)CC4)cc3)nc2n1-c1cccc(C(C)(C)O)n1 [AZD1775] (first compound max 1 µM, partner max 1 µM)	band B
